Target: MAP kinase-activated protein kinase 2 (Homo sapiens, UniProt P49137)
Sequence (P49137 whole entry): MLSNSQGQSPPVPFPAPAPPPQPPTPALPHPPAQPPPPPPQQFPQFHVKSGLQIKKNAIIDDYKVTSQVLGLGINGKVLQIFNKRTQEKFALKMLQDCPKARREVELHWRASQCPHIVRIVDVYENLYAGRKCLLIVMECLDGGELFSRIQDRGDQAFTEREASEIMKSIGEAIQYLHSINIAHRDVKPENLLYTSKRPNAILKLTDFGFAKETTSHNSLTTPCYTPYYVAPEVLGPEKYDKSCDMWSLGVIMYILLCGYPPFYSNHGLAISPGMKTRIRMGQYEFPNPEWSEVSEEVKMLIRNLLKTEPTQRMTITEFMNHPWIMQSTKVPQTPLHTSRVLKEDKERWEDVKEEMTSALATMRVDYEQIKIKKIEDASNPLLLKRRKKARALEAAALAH
Test: Inhibition of MK2 in human TERT immortalised HCA2 cells assessed as inhibition of anisomycin-induced HSP27 phosphorylation at 2.5 uM by ELISA

item_smiles: O=C(CCCc1ccc(-c2ccccc2F)cc1)Nc1ccc(O)cc1
readout_units: µM
Ki: 0.33
